# Test target: T1, HLA-DRB1*0701 (human)
# T1 chain 1: not shown
# T1 chain 2: not shown
# Test: inhibition of 125I probe peptide binding to purified HLA-DR, gel filtration
# Stated conditions: remark: other sources report otherwise
# pIC50 per entry
# reply with the number alone; pIC50 is -log10 of concentration in mol/L

Binder: LSVFQNLQVIRGRIL [Her2/neu.422]
Reported measurement: 7.07

Would you kindly look at the next entry?
Sure, the documented pIC50 for TVQLVTQLMPYGCLL [Her2/neu.793] is 5.60
